molecular target: TyrRA153 (Serratia plymuthica, UniProt A0A318P557); experiment: Isothermal titration calorimetry of TyrRA153 with ligands; assay type: binding, Serratia plymuthica A153; details: ITC, in the presence of ATP; read-out: K D2
Sequence (A0A318P557 entry or part of it): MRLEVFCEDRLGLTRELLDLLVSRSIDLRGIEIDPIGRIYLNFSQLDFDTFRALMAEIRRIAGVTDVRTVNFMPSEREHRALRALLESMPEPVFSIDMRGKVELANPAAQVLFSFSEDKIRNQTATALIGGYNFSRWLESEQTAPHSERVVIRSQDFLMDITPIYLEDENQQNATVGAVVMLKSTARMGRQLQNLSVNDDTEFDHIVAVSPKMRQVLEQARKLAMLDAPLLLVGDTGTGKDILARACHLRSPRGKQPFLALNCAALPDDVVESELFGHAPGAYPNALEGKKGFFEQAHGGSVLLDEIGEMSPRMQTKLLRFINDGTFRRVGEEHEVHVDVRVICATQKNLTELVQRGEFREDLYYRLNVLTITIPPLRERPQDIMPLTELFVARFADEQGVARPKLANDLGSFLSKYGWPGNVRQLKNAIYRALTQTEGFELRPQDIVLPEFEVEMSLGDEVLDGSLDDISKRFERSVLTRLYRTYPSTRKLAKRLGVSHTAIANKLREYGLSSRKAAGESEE
PROPERTY LABEL: Kd (µM)
Numeric answer only, unit µM assumed.

Exam item: Requested field: Kd. Item: `N[C@@H](Cc1c[nH]c2ccccc12)C(=O)O`
Marked response: 2060

* * *

# pKd measurements, system: HpaAA153 (Serratia plymuthica)
# Sequence (A0A7T2WCJ6 entry or part of it): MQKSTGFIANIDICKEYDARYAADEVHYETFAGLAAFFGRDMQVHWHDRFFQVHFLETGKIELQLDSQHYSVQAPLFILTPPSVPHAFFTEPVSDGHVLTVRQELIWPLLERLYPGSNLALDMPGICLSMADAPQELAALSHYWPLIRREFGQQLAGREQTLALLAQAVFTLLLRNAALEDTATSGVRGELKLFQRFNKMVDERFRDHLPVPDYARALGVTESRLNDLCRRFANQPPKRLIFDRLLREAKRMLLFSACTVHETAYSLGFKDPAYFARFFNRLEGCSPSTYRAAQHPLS
Remember the convention: pKd equals -log10 of concentration in molar.

O=C(O)Cc1ccc(O)cc1 [4HPA, 4‐hydroxyphenylacetic acid] : 4.55

From here, focus on the item given below.
Exam item: Record O=C(O)c1ccc(O)cc1 [4‐hydroxybenzoic acid] : what is its pKd with HpaAA153 (Serratia plymuthica)?
Marked response: 4.55
